Target: Receptor tyrosine-protein kinase erbB-2 (Homo sapiens, UniProt P04626)
Sequence (P04626 whole entry): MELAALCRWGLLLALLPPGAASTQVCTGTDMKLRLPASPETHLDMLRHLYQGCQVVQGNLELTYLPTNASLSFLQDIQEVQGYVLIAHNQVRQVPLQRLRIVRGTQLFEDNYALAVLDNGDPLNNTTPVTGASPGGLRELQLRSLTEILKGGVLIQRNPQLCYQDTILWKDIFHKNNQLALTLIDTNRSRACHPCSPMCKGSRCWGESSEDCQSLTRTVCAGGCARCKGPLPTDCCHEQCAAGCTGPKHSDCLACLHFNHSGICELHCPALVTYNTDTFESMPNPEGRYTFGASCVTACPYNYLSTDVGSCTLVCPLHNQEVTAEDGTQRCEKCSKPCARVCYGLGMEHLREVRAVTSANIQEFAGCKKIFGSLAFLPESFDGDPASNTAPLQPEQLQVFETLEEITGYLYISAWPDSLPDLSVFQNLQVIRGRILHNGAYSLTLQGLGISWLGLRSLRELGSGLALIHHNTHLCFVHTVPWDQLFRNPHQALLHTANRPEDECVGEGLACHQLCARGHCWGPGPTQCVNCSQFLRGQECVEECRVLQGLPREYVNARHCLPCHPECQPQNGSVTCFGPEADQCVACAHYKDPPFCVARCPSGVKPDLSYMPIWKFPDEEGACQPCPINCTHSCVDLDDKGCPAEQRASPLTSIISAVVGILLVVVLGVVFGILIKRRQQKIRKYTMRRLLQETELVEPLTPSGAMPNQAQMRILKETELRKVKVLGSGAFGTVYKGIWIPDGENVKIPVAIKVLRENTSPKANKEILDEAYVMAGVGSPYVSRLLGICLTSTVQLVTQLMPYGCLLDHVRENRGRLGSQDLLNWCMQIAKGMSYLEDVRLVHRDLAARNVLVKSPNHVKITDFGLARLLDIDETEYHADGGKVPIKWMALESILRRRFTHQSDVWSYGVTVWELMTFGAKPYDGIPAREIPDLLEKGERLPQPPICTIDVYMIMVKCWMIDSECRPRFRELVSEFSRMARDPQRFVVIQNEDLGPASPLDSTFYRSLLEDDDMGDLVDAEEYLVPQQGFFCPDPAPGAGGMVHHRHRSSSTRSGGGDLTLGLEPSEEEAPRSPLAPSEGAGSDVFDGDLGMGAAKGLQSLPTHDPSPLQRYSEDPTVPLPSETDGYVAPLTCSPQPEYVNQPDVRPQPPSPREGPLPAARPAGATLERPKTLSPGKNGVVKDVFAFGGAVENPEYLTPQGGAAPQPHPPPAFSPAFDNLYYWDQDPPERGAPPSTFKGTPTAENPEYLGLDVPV
# note: exactly 1000 nM is not below, so it is no (0); use yes (1) for IC50 strictly under it

{"MOLECULE": "COCC#CC(=O)Nc1ccc2ncnc(Nc3cccc(Br)c3)c2c1", "CLASS_ASSIGNMENT": "yes (1)"}
{"MOLECULE": "CCN(CC)CC#CC(=O)Nc1ccc2ncnc(Nc3cccc(Br)c3)c2c1", "CLASS_ASSIGNMENT": "yes (1)"}
{"MOLECULE": "CCN(CC)C/C=C/C(=O)Nc1ccc2ncnc(Nc3cccc(Br)c3)c2c1", "CLASS_ASSIGNMENT": "no (0)"}
{"MOLECULE": "COC/C=C/C(=O)Nc1ccc2ncnc(Nc3cccc(Br)c3)c2c1", "CLASS_ASSIGNMENT": "no (0)"}
{"MOLECULE": "COC[C@H]1CCCN1C/C=C/C(=O)Nc1ccc2ncnc(Nc3cccc(Br)c3)c2c1", "CLASS_ASSIGNMENT": "yes (1)"}
{"MOLECULE": "CCCN(C/C=C/C(=O)Nc1ccc2ncnc(Nc3cccc(Br)c3)c2c1)CCC", "CLASS_ASSIGNMENT": "no (0)"}
{"MOLECULE": "C=CC(=O)Nc1ccc2ncnc(Nc3cccc(Br)c3)c2c1", "CLASS_ASSIGNMENT": "yes (1)"}
{"MOLECULE": "CC(C)N(CC#CC(=O)Nc1ccc2ncnc(Nc3cccc(Br)c3)c2c1)C(C)C", "CLASS_ASSIGNMENT": "yes (1)"}
{"MOLECULE": "O=C(/C=C/CN1CCSCC1)Nc1ccc2ncnc(Nc3cccc(Br)c3)c2c1", "CLASS_ASSIGNMENT": "no (0)"}
{"MOLECULE": "COCCOCC#CC(=O)Nc1ccc2ncnc(Nc3cccc(Br)c3)c2c1", "CLASS_ASSIGNMENT": "yes (1)"}
{"MOLECULE": "C=C(C)C(=O)Nc1ccc2ncnc(Nc3cccc(Br)c3)c2c1", "CLASS_ASSIGNMENT": "no (0)"}
{"MOLECULE": "CCN1CCN(CC#CC(=O)Nc2ccc3ncnc(Nc4cccc(Br)c4)c3c2)CC1", "CLASS_ASSIGNMENT": "yes (1)"}
{"MOLECULE": "O=C(/C=C/N1CCOCC1)Nc1ccc2ncnc(Nc3cccc(Br)c3)c2c1", "CLASS_ASSIGNMENT": "no (0)"}
{"MOLECULE": "CC#CC(=O)Nc1ccc2ncnc(Nc3cccc(Br)c3)c2c1", "CLASS_ASSIGNMENT": "yes (1)"}
{"MOLECULE": "O=C(C#CCN1CCCCC1)Nc1ccc2ncnc(Nc3cccc(Br)c3)c2c1", "CLASS_ASSIGNMENT": "yes (1)"}
{"MOLECULE": "O=C(/C=C/CN1CCC(N2CCCCC2)CC1)Nc1ccc2ncnc(Nc3cccc(Br)c3)c2c1", "CLASS_ASSIGNMENT": "no (0)"}
{"MOLECULE": "C/C=C/C(=O)Nc1ccc2ncnc(Nc3cccc(Br)c3)c2c1", "CLASS_ASSIGNMENT": "no (0)"}
{"MOLECULE": "O=C(C#CCN1CCOCC1)Nc1ccc2ncnc(Nc3cccc(Br)c3)c2c1", "CLASS_ASSIGNMENT": "yes (1)"}
{"MOLECULE": "CN1CCC=C(C(=O)Nc2ccc3ncnc(Nc4cccc(Br)c4)c3c2)C1", "CLASS_ASSIGNMENT": "no (0)"}
{"MOLECULE": "COCC1CCCN1CC#CC(=O)Nc1ccc2ncnc(Nc3cccc(Br)c3)c2c1 (configuration not stated)", "CLASS_ASSIGNMENT": "yes (1)"}
{"MOLECULE": "O=C(C#CCN1CCSCC1)Nc1ccc2ncnc(Nc3cccc(Br)c3)c2c1", "CLASS_ASSIGNMENT": "yes (1)"}
{"MOLECULE": "COCOCC#CC(=O)Nc1ccc2ncnc(Nc3cccc(Br)c3)c2c1", "CLASS_ASSIGNMENT": "yes (1)"}
{"MOLECULE": "O=C(C#CCO)Nc1ccc2ncnc(Nc3cccc(Br)c3)c2c1", "CLASS_ASSIGNMENT": "yes (1)"}
{"MOLECULE": "O=C(/C=C/CN1CCCCC1)Nc1ccc2ncnc(Nc3cccc(Br)c3)c2c1", "CLASS_ASSIGNMENT": "no (0)"}
{"MOLECULE": "O=C(/C=C/CN1CCOCC1)Nc1ccc2ncnc(Nc3cccc(Br)c3)c2c1", "CLASS_ASSIGNMENT": "no (0)"}
{"MOLECULE": "COC[C@@H]1CCCN1C/C=C\\C(=O)Nc1ccc2ncnc(Nc3cccc(Br)c3)c2c1", "CLASS_ASSIGNMENT": "no (0)"}
{"MOLECULE": "CCCN(CC#CC(=O)Nc1ccc2ncnc(Nc3cccc(Br)c3)c2c1)CCC", "CLASS_ASSIGNMENT": "yes (1)"}
